- experimental_system: T1, glutaredoxin 1 (Grx1), human, His-tagged, purified (human, UniProt P35754 1-106)
- T1 sequence (looked up): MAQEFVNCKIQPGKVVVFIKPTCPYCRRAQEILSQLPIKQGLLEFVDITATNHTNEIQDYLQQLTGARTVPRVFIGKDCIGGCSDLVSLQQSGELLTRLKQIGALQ
- protocol_summary: SPR
pKd: −log10 of the molar value. No end group written: not given here.

>  <binder>
ANHTMQV (not fully specified (N-terminus); also: biotin, position not given here) [biotin-1GP3]

>  <pKd>
4.42

$$$$
